experiment: in vivo; conditions: male, Sprague-Dawley, rat, iv, 5 mg/kg
Description: AUC (0 to infinity) in male Sprague-Dawley rat at 5 mg/kg, iv measured up to 8 hrs by HPLC analysis
REPORTED METRIC: AUC(0-inf) at 8 h (ng·h/mL)

>  <LINE NOTATION>
O=C1C[C@@H](c2ccc(O)c(O)c2)Oc2cc(O)cc(O)c21

>  <U>
ng·h/mL

>  <ASSAY VALUE>
932

$$$$

---

biological target: Alpha-ketoglutarate-dependent dioxygenase FTO (Homo sapiens); assay: Binding affinity to GFP-tagged FTO (unknown origin) assessed as dissociation constant by SPR analysis
pKd: −log10 of the molar value.

>  <LINE NOTATION>
O=C1C[C@@H](c2ccc(O)c(O)c2)Oc2cc(O)cc(O)c21

>  <pKd>
5.49

$$$$

---

test: in vitro; conditions: rat, liver microsomes
Description: Metabolic stability in rat liver microsomes assessed as intrinsic clearance per mg protein at 1 uM by HPLC analysis
REPORTED METRIC: microsomal CLint at 1 µM (µL/min/mg)

>  <MOLECULE>
O=C1C[C@@H](c2ccc(O)c(O)c2)Oc2cc(O)cc(O)c21 [ERIODICTYOL]

>  <U>
µL/min/mg

>  <ASSAY VALUE>
67.2

$$$$

---

test: Binding affinity to GFP-tagged FTO Tyr108 mutant (unknown origin) assessed as dissociation constant by microscale thermophoresis analysis
REPORTED METRIC: Kd (µM)

>  <LINE NOTATION>
O=C1C[C@@H](c2ccc(O)c(O)c2)Oc2cc(O)cc(O)c21

>  <ASSAY VALUE>
47.6

$$$$

---

assay: in vivo; details: male, Sprague-Dawley, rat, po, 10 mg/kg
Description: Cmax in male Sprague-Dawley rat at 10 mg/kg, po measured up to 24 hrs by HPLC analysis
REPORTED METRIC: Cmax at 24 h (ng/mL)

>  <MOLECULE>
O=C1C[C@@H](c2ccc(O)c(O)c2)Oc2cc(O)cc(O)c21 [ERIODICTYOL]

>  <REPORTED METRIC>
Cmax at 24 h

>  <ASSAY VALUE>
472

$$$$

---

assay: in vitro; settings: human, liver microsomes
Description: Metabolic stability in human liver microsome assessed as half-life at 1 uM by HPLC analysis

>  <LINE NOTATION>
O=C1C[C@@H](c2ccc(O)c(O)c2)Oc2cc(O)cc(O)c21

>  <half-life at 1 µM>
> 3.11 h

$$$$

---

molecular target: Alpha-ketoglutarate-dependent dioxygenase FTO (Homo sapiens, UniProt Q9C0B1)
Sequence (Q9C0B1 whole entry): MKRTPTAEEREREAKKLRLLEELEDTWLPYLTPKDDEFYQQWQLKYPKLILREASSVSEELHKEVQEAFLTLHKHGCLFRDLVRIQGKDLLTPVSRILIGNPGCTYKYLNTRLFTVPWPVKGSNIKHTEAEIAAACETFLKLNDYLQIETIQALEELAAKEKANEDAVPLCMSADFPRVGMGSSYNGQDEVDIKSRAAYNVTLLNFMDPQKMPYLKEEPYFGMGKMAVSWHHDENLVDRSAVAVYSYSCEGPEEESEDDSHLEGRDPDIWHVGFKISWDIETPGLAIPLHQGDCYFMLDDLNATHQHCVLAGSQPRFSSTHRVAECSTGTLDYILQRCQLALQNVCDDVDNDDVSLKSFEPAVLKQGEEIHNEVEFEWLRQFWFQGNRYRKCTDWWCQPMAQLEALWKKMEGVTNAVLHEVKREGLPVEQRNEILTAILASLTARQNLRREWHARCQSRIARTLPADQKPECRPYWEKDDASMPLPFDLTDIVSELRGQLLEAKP

>  <COMPOUND>
O=c1cc(-c2ccc(O)c(O)c2)oc2cc(O)cc(O)c12 [LUTEOLIN]

>  <U>
µM

>  <IC50>
7.5

$$$$
>  <COMPOUND>
O=c1cc(-c2ccccc2)oc2cc(O)ccc12 [7-HYDROXYFLAVONE]

>  <U>
µM

>  <IC50>
17.9

$$$$
>  <COMPOUND>
O=c1cc(-c2ccccc2)oc2cc(O)c(O)c(O)c12 [BAICALEIN]

>  <U>
µM

>  <IC50>
17.1

$$$$
>  <COMPOUND>
O=c1cc(-c2ccccc2)oc2cccc(O)c12 [5-HYDROXYFLAVONE]

>  <U>
µM

>  <IC50>
19.2

$$$$
>  <COMPOUND>
O=c1c(O)c(-c2cc(O)c(O)c(O)c2)oc2cc(O)cc(O)c12 [MYRICETIN]

>  <U>
µM

>  <IC50>
9.6

$$$$
>  <COMPOUND>
O=c1cc(-c2cc(O)c(O)c(O)c2)oc2cc(O)cc(O)c12 [TRICETIN]

>  <U>
µM

>  <IC50>
7.7

$$$$
>  <COMPOUND>
O=c1cc(-c2ccc(O)cc2)oc2cc(O)cc(O)c12 [APIGENIN]

>  <U>
µM

>  <IC50>
12.1

$$$$
>  <COMPOUND>
O=c1cc(-c2ccccc2)oc2ccc(O)cc12 [6-HYDROXYFLAVONE]

>  <U>
µM

>  <IC50>
17.8

$$$$
>  <COMPOUND>
O=c1cc(-c2ccc(O)cc2)oc2cc(O)c(O)c(O)c12 [SCUTELLAREIN]

>  <U>
µM

>  <IC50>
15.6

$$$$
>  <COMPOUND>
O=c1ccoc2ccccc12 [CHROMONE]

>  <U>
µM

>  <IC50>
89.8

$$$$
